- tested-target: human PD-L1 (human) (UniProt Q9NZQ7)
- Sequence (Q9NZQ7 19-290): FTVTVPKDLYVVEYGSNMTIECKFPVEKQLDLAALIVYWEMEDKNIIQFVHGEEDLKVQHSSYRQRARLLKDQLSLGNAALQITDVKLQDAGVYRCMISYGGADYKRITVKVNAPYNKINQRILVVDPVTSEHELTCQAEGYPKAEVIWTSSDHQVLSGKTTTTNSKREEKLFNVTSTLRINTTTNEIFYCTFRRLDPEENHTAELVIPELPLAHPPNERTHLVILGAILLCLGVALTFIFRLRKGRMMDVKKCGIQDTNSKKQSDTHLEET
- protocol-summary: flow cytometry, CHO cells expressing huPD-L1
experimental-readout: MFI at 33.3 nM (MFI)

# binder, MFI at 33.3 nM (MFI)
data = [
    ("variant CD80 IgV-Fc E35D/M47V/N48T/L85Q (Fc fusion) VIHVTKEVKEVATLSCGHNVSVEELAQTRIYWQKDKKMVLTMMSGDVTIWPEYKNRTIFDITNNLSIVILALRPSDEGTYECVVQKYEKDAFKREHLAEVTLSVKAD", 35500),
]

I. variant CD80 IgV-Fc H18Y/Q33L/E35D/M47I (Fc fusion) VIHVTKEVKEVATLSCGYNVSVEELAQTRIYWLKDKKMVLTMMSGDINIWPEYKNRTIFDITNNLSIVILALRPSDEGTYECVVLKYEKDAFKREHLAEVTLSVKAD
II. variant CD80 IgV-Fc A26E/Q33R/E35D/M47L/L85Q (Fc fusion) VIHVTKEVKEVATLSCGHNVSVEELEQTRIYWRKDKKMVLTMMSGDLNIWPEYKNRTIFDITNNLSIVILALRPSDEGTYECVVQKYEKDAFKREHLAEVTLSVKAD
III. variant CD80 IgV-Fc E35D/D46V/M47V/V68M/L85Q (Fc fusion) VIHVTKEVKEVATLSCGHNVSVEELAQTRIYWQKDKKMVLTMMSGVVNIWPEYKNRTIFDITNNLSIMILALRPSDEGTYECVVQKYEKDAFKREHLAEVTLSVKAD
Order the records so the highest MFI at 33.3 nM appears first and the lowest last. Submit the labels in the order that the ranking request calls for. II, I, III
